# Test system: redroot pigweed (Amaranthus retroflexus)
# test.name: Test G Post-Emergence Protocol
# Type: in vivo
# run.conditions: Amaranthus retroflexus, post-emergence, 312 h, 250 g ai/ha, evaluated after 13 days, read-out: damage to plant, Pigweed, Redroot (100=total damage to plant; 0=no damage to plant)
# From the text: Seeds of corn (Zea mays), giant foxtail (Setaria faberi), barnyardgrass (Echinochloa crus-galli), ivy-leaved morning glory (Ipomoea hederacea), redroot pigweed (Amaranthus retroflexus) and velvetleaf (Abutilon theophrasti) were sown in standard soil in pots. […]
As shown below, each of these molecules has a reported pest or weed control at 250 g/ha value.
Report the value in % with no unit label.

Give its pest or weed control at 250 g/ha value. Item: CN1C[C@H](c2ccc(C(F)(F)F)cc2)[C@@H](C(=O)Nc2ccccc2S(C)(=O)=O)C1=O (racemic) 40

Similarly, CCc1nc(NC(=O)[C@@H]2C(=O)N(C)C[C@H]2c2ccc(C(F)(F)F)cc2)n[nH]1 (racemic) ? 0

Similarly, CN1C[C@H](c2ccc(C(F)(F)F)cc2)[C@@H](C(=O)Nc2ccc(F)cc2[N+](=O)[O-])C1=O (racemic) ? 40

Similarly, CN1C[C@@H](c2ccc(C(F)(F)F)cc2)[C@H](C(=O)Nc2csc(C(F)(F)F)n2)C1=O (racemic) ? 70

Similarly, Cc1n[nH]c(NC(=O)[C@@H]2C(=O)N(C)C[C@H]2c2ccc(C(F)(F)F)cc2)c1C#N (racemic) ? 0

Similarly, CSc1ccccc1NC(=O)[C@@H]1C(=O)N(C)C[C@H]1c1ccc(C(F)(F)F)nc1 (racemic) ? 40

Similarly, CCOC(=O)c1cccc([C@H]2CN(C)C(=O)[C@@H]2C(=O)Nc2ccccc2F)c1 (racemic) ? 10

---

As shown below, each of these compounds has a reported pest or weed control at 500 g/ha value.
# System: pigweed (Amaranthus retroflexus)
# test.name: Test A preemergence
# Assay type: in vivo
# run.conditions: Amaranthus retroflexus, pre-emergence, 240 h, 500 g ai/ha, preemergence; 0 to 100 scale, 0 = no effect, 100 = complete control; read-out: Plant response rating, Pigweed
# Text: […]
In your response, put the unit directly after the numeric value.

See these solved cases before continuing.
CSc1ccccc1NC(=O)[C@H]1C(=S)NC[C@@H]1c1ccc(C)c(C)c1	0%
CN1C[C@H](c2ccc3c(c2)CCC3)[C@@H](C(=O)Nc2ccccc2S(C)(=O)=O)C1=O	50%

Please find the next compound below.
Notebook entry, pigweed (Amaranthus retroflexus) assay: pest or weed control at 500 g/ha of CS(=O)(=O)c1ccccc1NC(=O)[C@H]1C(=O)NC[C@@H]1c1cccc2c1OC(F)(F)O2 = ? 0%

---

# System: redroot pigweed (Amaranthus retroflexus)
# test.name: Test G Post-Emergence Protocol
# Format: in vivo
# run.conditions: Amaranthus retroflexus, post-emergence, 312 h, 250 g ai/ha, evaluated after 13 days, 100=total damage to plant, 0=no damage to plant, read-out: Pigweed, Redroot damage rating
measurement.label: pest or weed control at 250 g/ha (%)
Report the value in % with no unit label.

See these solved cases before continuing.
CN1C[C@H](c2ccc(C(F)(F)F)cc2)[C@@H](C(=O)Nc2ccc3ncccc3n2)C1=O (racemic)	0
COc1ccc(C2CN(C)C(=O)C2C(=O)Nc2cccc(F)c2F)cc1C (stereo not shown)	10
CN1C[C@H](c2cccc(C(F)(F)F)c2)[C@@H](C(=O)Nc2cnccc2[S+](C)[O-])C1=O (mixture of isomers)	0
CCOc1ccc([C@@H]2CN(C)C(=O)[C@H]2C(=O)Nc2cccc(F)c2C)cc1Cl (racemic)	20
Cc1c(F)cccc1NC(=O)[C@@H]1C(=O)N(C)C[C@H]1c1cccc(C(C)(C)O)c1 (racemic)	10
Cc1cc(C)cc([C@H]2CN(C)C(=O)[C@@H]2C(=O)Nc2ccccc2S(C)(=O)=O)c1 (racemic)	0

Please find the next molecule below.
Give its pest or weed control at 250 g/ha value. Item: CN1C[C@@H](c2ccc(C(F)(F)F)cc2)[C@H](C(=O)Nc2cnc(Cl)cn2)C1=O (racemic) 40

---

# Test system: giant foxtail (Setaria faberii)
# test.name: Test A preemergence
# Format: in vivo
# run.conditions: Setaria faberi, pre-emergence, 240 h, 31 g ai/ha, Preemergence; 0 to 100 scale where 0 is no effect and 100 is complete control; read-out: Foxtail, Giant plant response rating
As shown below, each of these compounds has a reported pest or weed control at 31 g/ha value.
Report the value in % with no unit label.

Give its pest or weed control at 31 g/ha value. Item: CN1C[C@H](c2cc(C(F)F)cs2)[C@@H](C(=O)Nc2ccccc2S(C)(=O)=O)C1=O [Compound 1084] 30

Similarly, CN1C[C@H](c2cccc(C#N)c2)[C@@H](C(=O)Nc2cccc(F)c2F)C1=O [Compound 1286] ? 100

Similarly, COc1cccc([C@H]2CNC(=O)[C@@H]2C(=O)Nc2cccc(F)c2F)c1F [Compound 1061] ? 20

Similarly, Cc1ccc([C@H]2CN(C)C(=O)[C@@H]2C(=O)Nc2c(F)c(F)c(F)c(F)c2F)cc1 [Compound 1292] ? 70

---

As shown below, each of these molecules has a reported Plant response rating, Ryegrass, Italian value.
# Test system: ryegrass, Italian (Italian ryegrass, Lolium multiflorum)
# test.name: Test A preemergence
# Format: in vivo
# run.conditions: 500 g ai/ha, preemergence; 0 to 100 scale, 0 = no effect, 100 = complete control
The answer should be a number; do not append a unit.

See these solved cases before continuing.
Cc1ccc(C2CN(C)C(=O)C2C(=O)Nc2cccc(F)c2F)cc1 (stereo not shown)	90
CN1CC(c2ccc(C(F)(F)F)cc2)C(C(=O)Nc2ccc(F)cc2F)C1=O (stereo not shown)	50
CC(=O)c1ccccc1NC(=O)C1C(=O)NCC1c1cccc(C(F)(F)F)c1 (racemic)	0

Notebook entry, ryegrass, Italian (Italian ryegrass, Lolium multiflorum) assay: Plant response rating, Ryegrass, Italian of Cc1ccc(C2CNC(=O)C2C(=O)Nc2cccc(F)c2F)cc1C(F)(F)F (racemic) = ? 30

---

# Tested on: Kochia (Kochia scoparia)
# test.name: Test A postemergence
# Assay type: in vivo
# run.conditions: 125 g ai/ha, postemergence; visual rating after approx. 10 d, 0 to 100 scale (0 no effect, 100 complete control)
As shown below, each of these molecules has a reported Plant response rating, Kochia value.
The answer should be a number; do not append a unit.

See these solved cases before continuing.
CN1CC(c2ccc(F)c(C(F)(F)F)c2)C(C(=O)Nc2cccc(F)c2F)C1=O (stereo not drawn)	60
O=C(Nc1ccccc1F)C1C(=O)N(CC=CBr)CC1c1cccc(C(F)(F)F)c1 (stereo not drawn)	0

Please find the next molecule below.
Give its Plant response rating, Kochia value. Item: CC(C)Oc1cccc(C2CN(C)C(=O)C2C(=O)Nc2ccccc2F)c1 (stereo not drawn) 0

---

# Test system: ragweed (common ragweed, Ambrosia elatior)
# test.name: Test A preemergence
# Assay type: in vivo
# run.conditions: Ambrosia artemisiifolia, pre-emergence, 240 h, 500 g ai/ha, Preemergence, visual injury vs untreated controls after approximately 10 d; read-out: Ragweed plant response rating (0 to 100 scale where 0 is no effect and 100 is complete control)
As shown below, each of these compounds has a reported pest or weed control at 500 g/ha value.
Report the value in % with no unit label.

See these solved cases before continuing.
CN1C[C@H](c2cc(F)c(F)c(F)c2)[C@@H](C(=O)Nc2ccccc2F)C1=O [Compound 878]	80
CN1C[C@H](c2cccc([N+](=O)[O-])c2)[C@@H](C(=O)Nc2cccc(F)c2F)C1=O (racemic) [Compound 776]	80
Cc1cc([C@H]2CNC(=O)[C@@H]2C(=O)Nc2cccc(F)c2F)ccc1Cl [Compound 790]	60
COc1ccc([C@H]2CN(C)C(=O)[C@@H]2C(=O)Nc2ccccc2F)cc1OC [Compound 852]	0
O=C1NC[C@H](c2ccc(F)c(OC(F)(F)C(F)(F)Br)c2)[C@H]1C(=O)Nc1cccc(F)c1F (racemic) [Compound 914]	0

Give its pest or weed control at 500 g/ha value. Item: CCOc1ccc([C@H]2CNC(=O)[C@@H]2C(=O)Nc2ccc(F)cc2F)cc1 [Compound 908] 0

Similarly, CN1CC[C@H](c2cccc(C(F)(F)F)c2)[C@@H](C(=O)Nc2ccccc2S(C)(=O)=O)C1=O [Compound 920] ? 0

---

# Tested on: ragweed (common ragweed, Ambrosia elatior)
# test.name: Test A preemergence
# Assay type: in vivo
# run.conditions: Ambrosia artemisiifolia, pre-emergence, 240 h, 31 g ai/ha, Preemergence; 0 to 100 scale where 0 is no effect and 100 is complete control; read-out: Ragweed plant response rating
measurement.label: pest or weed control at 31 g/ha

CN1C[C@H](c2csc3c2CCC3)[C@@H](C(=O)Nc2cccc(F)c2F)C1=O	20%
CN1C[C@H](c2ccc3c(c2)OC(F)(F)O3)[C@@H](C(=O)Nc2cnccc2C(F)(F)F)C1=O	20%
CN1C[C@H](c2cc(Cl)cc(Cl)c2)[C@@H](C(=O)Nc2cccc(F)c2F)C1=O	0%
CN1C[C@H](c2cc(C(F)F)cs2)[C@@H](C(=O)Nc2ccc(F)c(F)c2F)C1=O	0%
O=C1NC[C@H](c2ccc(C(F)(F)F)cn2)[C@H]1C(=O)Nc1ccc(F)c(F)c1F	0%

Give its pest or weed control at 31 g/ha value. Item: CON1CC[C@H](c2cccc(C(F)(F)F)c2)[C@@H](C(=O)Nc2cccc(Cl)c2F)C1=O 0%

Similarly, COc1ccc(C(F)(F)F)cc1[C@H]1CN(C)C(=O)[C@@H]1C(=O)Nc1cccc(F)c1F ? 0%

Similarly, O=C(Nc1ccccc1F)C1C(=O)N(CC(F)F)CC1c1cccc(C(F)(F)F)c1 (centres unmarked) ? 0%

Ref: patent US12077503B2
